# logD values compiled below
- test: physchem
- details: octan-1-ol/water, pH 7.4, LogD7.4
Lab note: jot the number down without any unit.

// below: answered compounds
# compound, numericReadout
rows = [
    ("COc1ccc2c(c1)N(CCN1CCC(NCc3ccc4c(n3)NC(=O)CO4)CC1)C(=O)OC2", 0.5),
    ("CC(=O)Nc1cccc(S(=O)(=O)Nc2ccc(-c3ccccc3)n(CC(=O)NC(C(=O)C(F)(F)F)C(C)C)c2=O)c1 (stereo not given)", 2.43),
    ("Cc1cccc(Cn2ccn3c(=O)cc(N4CCOCC4)nc23)c1", 2.8),
    ("CC(C)Cn1c(=O)n(C)c(=O)c2cn(Cc3cccc4ccccc34)cc21", 4.41),
]

Proceed to the following item.
# logD of CCN(CC)S(=O)(=O)c1ccc(-c2cc(C(F)(F)F)ccc2OCC(=O)O)cc1 = 0.67

###

- test: physchem
- details: pH 7.4 buffer
reportedEndpoint: solubility thermodynamic (µM)
Form entry: value (µM) — number only.

// below: answered compounds
# compoundStructureString, solubility thermodynamic [µM]
measured = [
    ("C[C@@H]1CN(C(=O)OC(C)(C)C)CCN1c1ncc(OCc2ccc(S(C)(=O)=O)cc2F)cn1", 2.2),
    ("COc1cc(N2CCN(C(C)=O)CC2)ccc1Nc1ncc(F)c(-c2cnc3ccccn23)n1", 14.5),
    ("N#Cc1ccc(CN2CCN(c3ccc4nnc(C(F)(F)F)n4n3)CC2)cc1", 11.5),
    ("CC(C)Oc1cc(OCCc2ccccc2)cc(C(=O)Nc2ccc(C(=O)O)cn2)c1", 28.8),
    ("COc1cc(C(=O)O)ccc1Cn1ccc2ccc(NC(=O)OC3CCCC3)cc21", 186),
    ("CCN1N=C(c2ccccc2)Cn2c1nc1ccccc12", 6.9),
    ("O=C(Nc1ccccc1)N1CCN(c2ccccn2)CC1", 170),
    ("COc1cc2ncnc(Nc3ccc(F)c(Cl)c3)c2cc1OC", 7.2),
]

# solubility thermodynamic of N=C(N)c1ccc2cc(C(=O)Nc3ccc4c(c3)OCO4)ccc2c1 = 44.7

# solubility thermodynamic of Cc1ccccc1Nc1ncnc2ccccc12 = 417

# solubility thermodynamic of Cc1cccc(NS(=O)(=O)c2cccc3nonc23)c1 = 81.3

# solubility thermodynamic of COCCNS(=O)(=O)c1ccc(Nc2nccc(-c3cnc(C)n3C3CCCC3)n2)cc1 = 53.7

###

- test: physchem
- details: octan-1-ol/water, pH 7.4, LogD7.4
Class (required): determined from logD; valid ranges are bottom end: < 2; midrange: ≥ 2 and < 3; top end: ≥ 3

Below, 5 molecules whose answers are already recorded.
# molecule, assignedClass
rows = [
    ("O=c1[nH]ccc2nc(-c3ccc(CN4CCC(c5n[nH]c(-c6ccccn6)n5)CC4)cc3)c(-c3ccccc3)cc12", "top end"),
    ("N#Cc1ccc2cccc(O)c2n1", "bottom end"),
    ("Cc1c(C(=O)Nc2ccccc2)sc2ncnc(O)c12", "midrange"),
    ("CCN(C(=O)Cc1ccc(S(C)(=O)=O)cc1)C1CCN(CCC(c2ccccc2)c2ccc(NC(C)=O)cc2)CC1 (configuration not stated)", "midrange"),
    ("Cc1ccc(NC(=O)c2cccc(N(C)C)c2)cc1NC(=O)c1ccc(OCc2ccccn2)cc1", "midrange"),
]

Textbook exercise: identify the category of the molecule given here, Cc1ccc(-c2csc3ncnc(O)c23)cc1 , according to its measured value.
midrange

Textbook exercise: identify the category of the molecule given here, CCCc1cc(OCc2ccccc2)cc(=O)n1Cc1ccc(-c2ccccc2-c2nn[nH]n2)cc1 , according to its measured value.
midrange

Textbook exercise: identify the category of the molecule given here, Cc1cnc2c(N[C@H](C)CO)nc(SCc3cccc(F)c3F)nc2n1 , according to its measured value.
top end

Textbook exercise: identify the category of the molecule given here, CC(C)Cn1c(=O)n(C)c(=O)c2c(C(=O)N3CC=CC3)c(Cc3ccccc3C(F)(F)F)sc21 , according to its measured value.
top end

Textbook exercise: identify the category of the molecule given here, O=C(Nc1ccc(O)cc1)c1ccc(O)cc1 , according to its measured value.
bottom end

Textbook exercise: identify the category of the molecule given here, C[C@H]([C@H](O)c1ccc(O)cc1)N1CCC(O)(c2ccccc2)CC1 , according to its measured value.
bottom end

###

- test: in vitro
- details: human, plasma, PPB
reportedEndpoint: fraction unbound at 5 h
Lab note: jot the number down without any unit.

// below: answered molecules
# molecule, fraction unbound at 5 h
records = [
    ("N#Cc1ccc(C(F)(F)F)nc1O[C@H](CCN)c1ccno1", 0.557),
    ("O=C(N[C@@H]1COc2cccc(-c3ccc(CO)nc3)c2C1)c1ccc(OCCOCC(F)(F)F)nc1", 0.0409),
    ("O=c1cc(-c2cccnc2)[nH]c2cc(C(O)c3ccccc3)ccc12 (stereo unspecified)", 0.0268),
    ("O=C(COc1ccccc1Cl)c1ccc[nH]1", 0.0676),
    ("NC(=O)c1cnc(N[C@H]2CCCNC2)c2cc(-c3ccc(Cl)c(F)c3)sc12", 0.0106),
]

Proceed to the following item.
# fraction unbound at 5 h of CC(C)(C)NC(=O)NCCN1CCOC(CNC(=O)c2cc(Cl)cc(Cl)c2)C1 (stereo unspecified) = 0.0606

###

- test: physchem
- details: pH 7.4 buffer
reportedEndpoint: solubility thermodynamic

// below: answered compounds
# compound, solubility thermodynamic
data = [
    ("O=c1[nH]c2cc(Cl)ccc2c(O)c1-c1cccc(Oc2ccccc2)c1", "2.5 µM"),
    ("CN(C(=O)NCc1ccccc1)C1CCN(CCC(c2ccccc2)c2ccccc2)CC1", "25.7 µM"),
    ("COC[C@H](C)Oc1cc(O[C@@H](C)Cc2ccccc2OC)cc(C(=O)Nc2ccc(C(=O)O)cn2)c1", "589 µM"),
    ("CCCCC(CC)CNC(=O)c1ccc2c(c1)c(Cc1ccc(C(=O)NS(=O)(=O)c3ccccc3C)cc1OC)cn2C (stereo not given)", "6.5 µM"),
]

Proceed to the following item.
# solubility thermodynamic of COc1cc(OC2CNC2)ccc1Nc1ncc(Cl)c(-c2cnc3ccccn23)n1 = 81.3 µM

###

- test: physchem
- details: octan-1-ol/water, pH 7.4, LogD7.4
Doc: threshold 3 (exclusive). Items with logD beneath it return Fulfilled; others return Not fulfilled.

Below, 4 molecules whose answers are already recorded.
# molecule, assignedClass
records = [
    ("CC(C)C(NC(=O)Cn1c(-c2ccccc2)ccc(N)c1=O)C(=O)C(F)(F)F (stereo not given)", "Fulfilled"),
    ("CC[C@H](NC(=O)c1c([S+]([O-])C(C)C)c(-c2ccccc2)nc2ccccc12)c1ccccc1 (stereo not given in full)", "Not fulfilled"),
    ("COc1nc(Cl)cnc1NS(=O)(=O)c1cccc2c(N(C)C)cccc12", "Fulfilled"),
    ("O=C1CCOc2nc(OCc3ccccc3)ccc21", "Not fulfilled"),
]

Please let me know if N#Cc1cccc(C(=O)NC[C@@H](O)CN2CCC(Oc3ccc(Cl)c(Cl)c3)CC2)c1 shows logD below 3.
Not fulfilled

Please let me know if CCN(CC)C(=O)Cc1csc(NS(=O)(=O)c2cccc(Cl)c2C)n1 shows logD below 3.
Fulfilled

Please let me know if CN1CCCC1CCNC(=O)c1ccc(Nc2ncc3cc(-c4ccncc4)ccc3n2)cc1 (stereo not given) shows logD below 3.
Fulfilled

Please let me know if Cc1nc2ncnn2c(O)c1CCOC(=O)c1c(F)cccc1F shows logD below 3.
Fulfilled

Please let me know if C[C@@H]1CN(c2nc(N3CCOCC3)c3ccc(Nc4ccccc4)nc3n2)C[C@H](C)O1 shows logD below 3.
Not fulfilled

Please let me know if CC[C@H](NC(=O)c1c([S+](C)[O-])c(-c2ccccc2)nc2cc(Br)ccc12)c1ccccc1 (stereo not given in full) shows logD below 3.
Not fulfilled

###

- test: physchem
- details: octan-1-ol/water, pH 7.4, LogD7.4
reportedEndpoint: logD
Lab note: jot the number down without any unit.

// below: answered compounds
# compound, numericReadout
measured = [
    ("COc1ccc(S(=O)(=O)NC(=O)N2CCC(N3CCC(Oc4ccc(Cl)c(Cl)c4)CC3)CC2)cc1", 1.39),
    ("COc1ccc(COc2ccc(Cc3cnc(N)nc3N)cc2OC)cc1 [GW632580X]", 2.27),
    ("CC1=C(C(=O)O)N2C(=O)[C@@H](NC(=O)[C@H](N)c3ccc(O)cc3)[C@H]2SC1", -0.86),
    ("O=C(Nc1c(Cl)cncc1Cl)c1ccc(OC(F)F)c(OCC2CC2)c1", 3.95),
    ("CC(C)Cn1c(=O)n(C)c(=O)c2c(C(=O)N3CC[C@@H](O)C3)c(Cc3c[nH]c4ncccc34)sc21", 1.71),
    ("NS(=O)(=O)c1cc2c(cc1C(F)(F)F)NC(Cc1ccccc1)NS2(=O)=O (centres undefined) [BENDROFLUMETHIAZIDE]", 1.78),
]

# logD of O=C(NC[C@@H](O)CN1CCC(Oc2ccc(Cl)c(Cl)c2)CC1)c1c[nH]c(=O)c2c(F)cccc12 = 3.15

# logD of Cc1ccc(S(=O)(=O)Nc2c(C(=O)N[C@@H](C)C(C)(C)C)c(C)nn2C2CCC2)cc1 = 1.57

# logD of CSc1nc(N)nc(-c2ccccc2)n1 = 2.98

# logD of COC(=O)CCCC(=O)Nc1ccc2c(c1)-c1ccccc1C(=O)C2=O = 2.96

# logD of O=c1cc(OCc2ccccc2)ccn1-c1ccc2c(cnn2CCN2CCCC2)c1 = 2
